assay: qHTS assay to identify small molecule agonists of the RXR signaling pathway - cell viability counter screen (AID 1159529); conditions: RXR-alpha-bla HEK293T viability, CellTiter-Glo, 16 h; series mostly up to 76.8 µM; note: nearly all actives have a fitted effect of over 50% in size
Records with an inconclusive call do not appear. The source made the active and inactive calls. Calls come from the whole dose curve; as a rule, active = well fitted cell-killing curve with a large enough effect in the repeat runs; inconclusive = weak or mixed curves, or effect the other way; inactive = no such curve, though single readings can be large or run the other way.
In this exercise, the only acceptable responses are 1.0 = active, 0.0 = inactive

Take a look at these entries with their results.
• FC(F)(F)c1ccccc1Cl = 0.0
• Cc1cccc(O)c1N = 0.0
• C=C1C[C@@]23CC[C@H]4[C@@](C)(CCC[C@@]4(C)C(=O)O[C@@H]4O[C@H](CO)[C@@H](O)[C@H](O)[C@H]4O)[C@@H]2CC[C@]1(O[C@@H]1O[C@H](CO)[C@@H](O)[C@H](O[C@@H]2O[C@H](CO)[C@@H](O)[C@H](O)[C@H]2O)[C@H]1O[C@@H]1O[C@H](CO)[C@@H](O)[C@H](O)[C@H]1O)C3 = 0.0
• c1ccc2sc(SN(C3CCCCC3)C3CCCCC3)nc2c1 = 0.0
• COC(=O)CCS = 0.0
• c1csc(SSc2cccs2)c1 = 1.0

-- ask Hi, do you know how CN1CCCC(n2nc(Cc3ccc(Cl)cc3)c3ccccc3c2=O)CC1 (stereo not given) came out in this test?
-- reply 1.0

-- ask Hi, do you know how CC1CC(C)C(=O)C1=O (stereo not given) came out in this test?
-- reply 0.0

-- ask Hi, do you know how CCOc1ccccc1O[C@H](c1ccccc1)[C@H]1CNCCO1 came out in this test?
-- reply 0.0

-- ask Hi, do you know how O=[N+]([O-])c1ccc(Nc2ccc(Nc3ccccc3)c(S(=O)(=O)O)c2)c([N+](=O)[O-])c1 came out in this test?
-- reply 0.0

###

test: A CellTox Green Cytotoxicity Assay to monitor cytotoxicity in HEK293 cells - 24 hour (AID 1224875); conditions: CellTox Green fluorescence; series mostly up to 76.8 µM; note: nearly all actives have a fitted effect of over 45% in size
Results filed as inconclusive are left out. Active and inactive are the calls of the source. The call rests on the fitted dose curve; in most records, active means well fitted activation curve with a large enough effect in the repeat runs; inconclusive means weak or mixed curves; inactive means flat fitted curve, though single readings scatter.
reported.metric: outcome

Example compounds with recorded outcome:
• Cc1ccc2c(Br)cc(Br)c(O)c2n1 = inactive
• CCCCCCNC(=O)n1cc(F)c(=O)[nH]c1=O = inactive
• CC(C)=CCC/C(C)=C/CC/C(C)=C/CCC(=O)OC/C=C(\C)CCC=C(C)C = inactive
• O=C(O)CCC(=O)C(=O)O = inactive

-- ask Return reported outcome. Input compound: NC(=O)c1ccncc1
-- reply inactive

-- ask Return reported outcome. Input compound: C[C@]1(Cn2ccnn2)[C@H](C(=O)O)N2C(=O)C[C@H]2S1(=O)=O
-- reply inactive

###

assay: qHTS assay to test for compound auto fluorescence at 535 nm (green) in HEK293 cell free culture (AID 720682); conditions: cell-free medium, green autofluorescence 485/535 nm, active compounds read high; series mostly up to 91.3 µM
The source made the active and inactive calls. The call rests on the fitted dose curve; in most records, active means well fitted curve in the direction sought with a large enough effect in the repeat runs; inconclusive means weak or mixed curves; inactive means flat fitted curve, though single readings scatter.
reported.metric: activity change

- C[C@@H]1CN(CCCn2c3ccccc3c3ccccc32)C[C@H](C)N1: inactive
- Cc1[nH]cnc1CN1CCc2c(c3ccccc3n2C)C1=O: inactive
- Cc1cc(C)c(N)cc1C: inactive

###

assay: qHTS assay to identify small molecule agonists of the hypoxia (HIF-1) signaling pathway - cell viability counter screen (AID 1224844); conditions: HRE-bla ME-180 viability, CellTiter-Glo luminescence, 17 h; series mostly up to 76.8 µM; note: nearly all actives have a fitted effect of over 50% in size
Records with an inconclusive call do not appear. Active and inactive are the calls of the source. The call rests on the fitted dose curve.
In this exercise, the only acceptable responses are active, inactive

Take a look at these entries with their results.
- CC(O)c1ccccc1 (configuration not stated): inactive
- CC[N+](CC)(CCNC(=O)C(=O)NCC[N+](CC)(CC)Cc1ccccc1Cl)Cc1ccccc1Cl: inactive
- O=C(O)c1ccc(OCCCOc2ccc(C(=O)O)cc2)cc1: inactive
- Cc1ccc(CO)cc1: inactive

-- ask Hi, do you know how Cc1ccc(C(C)(C)O)cc1 came out in this test?
-- reply inactive

-- ask Hi, do you know how Nc1ccc(N=Nc2ccccc2)c(N)c1 came out in this test?
-- reply inactive

-- ask Hi, do you know how C[C@@H](O)[C@H]1C(=O)N2C(C(=O)O)=C([C@H]3CCCO3)S[C@H]12 came out in this test?
-- reply inactive

-- ask Hi, do you know how O=C1c2ccccc2C(=O)c2c(O)c(O)cc(O)c21 came out in this test?
-- reply inactive

-- ask Hi, do you know how CCCCCCCCOc1ccc(C(=O)O)cc1 came out in this test?
-- reply inactive

-- ask Hi, do you know how FC(F)(F)c1ccccc1Cl came out in this test?
-- reply inactive

-- ask Hi, do you know how CCC(=O)OC came out in this test?
-- reply inactive

-- ask Hi, do you know how CC(C)=CC(=O)C=C(C)C came out in this test?
-- reply inactive

-- ask Hi, do you know how Oc1cccc(O)c1O came out in this test?
-- reply inactive

-- ask Hi, do you know how O=C(Nc1cccc2c(=O)cc(-c3nn[nH]n3)oc12)c1ccc(OCCCCc2ccccc2)cc1 came out in this test?
-- reply active

###

test: qHTS assay to identify small molecule that activate the aryl hydrocarbon receptor (AhR) signaling pathway - cell viability counter screen (AID 743086); details: HepG2-AhR-luc viability, CellTiter-Fluor, 24 h; series mostly up to 70.3 µM; note: nearly all actives have a fitted effect of over 45% in size
Results filed as inconclusive are left out. The source made the active and inactive calls. Calls come from the whole dose curve; as a rule, active = well fitted cell-killing curve with a large enough effect in the repeat runs; inconclusive = weak or mixed curves, or effect the other way; inactive = flat fitted curve, though single readings scatter.
In this exercise, the only acceptable responses are active, inactive

* Nc1nnc(-c2ccc([N+](=O)[O-])o2)o1 | active
* NCCNCCO | inactive
* CCOC(=O)/C=C/C(=O)OCC | inactive
* CC[N+](CC)(CCNC(=O)C(=O)NCC[N+](CC)(CC)Cc1ccccc1Cl)Cc1ccccc1Cl | inactive
* CC(=O)OCC(=O)NCCCOc1cccc(CN2CCCCC2)c1 | inactive

-- ask Hi, do you know how CC(CCC(=O)O)C(=O)O (stereo not given) came out in this test?
-- reply inactive

-- ask Hi, do you know how COc1cc(Nc2c(C#N)cnc3cc(OCCCN4CCN(C)CC4)c(OC)cc23)c(Cl)cc1Cl came out in this test?
-- reply active

-- ask Hi, do you know how CCC1(CO)COCOC1 came out in this test?
-- reply inactive

-- ask Hi, do you know how C[C@@H](CN(C)C)CN1c2ccccc2Sc2ccccc21 came out in this test?
-- reply inactive

-- ask Hi, do you know how c1ccc2sc(SN(C3CCCCC3)C3CCCCC3)nc2c1 came out in this test?
-- reply inactive

-- ask Hi, do you know how CCCC(=O)C(=O)O came out in this test?
-- reply inactive

-- ask Hi, do you know how Cc1cccc(O)c1N came out in this test?
-- reply inactive

-- ask Hi, do you know how CCCCCC[C@@H](O)C/C=C\CCCCCCCC(=O)OCC(O)CO (stereo not given in full) came out in this test?
-- reply inactive

-- ask Hi, do you know how C=CC(=O)OCC1CC2CC1C1CCC(COC(=O)C=C)C21 (stereo not given) came out in this test?
-- reply inactive

-- ask Hi, do you know how COC(=O)CCS came out in this test?
-- reply inactive

-- ask Hi, do you know how CCOC(=O)OC(C)OC(=O)[C@@H]1N2C(=O)[C@@H](NC(=O)[C@H](N)c3ccccc3)[C@H]2SC1(C)C (stereo not given in full) came out in this test?
-- reply inactive

-- ask Hi, do you know how CCCCCCCC/C=C\CCCCCCCCO came out in this test?
-- reply inactive

-- ask Hi, do you know how Cc1[nH]cnc1CN1CCc2c(c3ccccc3n2C)C1=O came out in this test?
-- reply inactive

-- ask Hi, do you know how O=C(Cn1ccnc1[N+](=O)[O-])NCCO came out in this test?
-- reply inactive

-- ask Hi, do you know how Cc1cc2c(OCC(CNC(C)(C)C)OC(=O)c3ccccc3)cccc2[nH]1 (stereo not given) came out in this test?
-- reply inactive

-- ask Hi, do you know how CC(C)C[C@H](NC(=O)[C@H](CCc1ccccc1)NC(=O)CN1CCOCC1)C(=O)N[C@@H](Cc1ccccc1)C(=O)N[C@@H](CC(C)C)C(=O)[C@@]1(C)CO1 came out in this test?
-- reply active

-- ask Hi, do you know how O=C(CCc1ccc(O)cc1)c1c(O)cc(O)cc1O came out in this test?
-- reply inactive

-- ask Hi, do you know how CCCCCCNC(=O)n1cc(F)c(=O)[nH]c1=O came out in this test?
-- reply inactive

-- ask Hi, do you know how O=C(O)CCC(=O)C(=O)O came out in this test?
-- reply inactive

-- ask Hi, do you know how O=C(/C=C/c1ccc(O)c(O)c1)O[C@@H]1C[C@@](OC(=O)/C=C/c2ccc(O)c(O)c2)(C(=O)O)C[C@@H](O)[C@@H]1O came out in this test?
-- reply inactive

###

assay: qHTS RealTime-Glo MT Cell Viability Assay in HepG2 cells - 16 hour (AID 1224885); details: RealTime-Glo luminescence; series mostly up to 76.8 µM; note: nearly all actives have a fitted effect of over 50% in size
Results filed as inconclusive are left out. Calls of active or inactive are those of the source. The call rests on the fitted dose curve; in most records, active means well fitted cell-killing curve with a large enough effect in the repeat runs; inconclusive means weak or mixed curves; inactive means flat fitted curve, though single readings scatter.
In this exercise, the only acceptable responses are t = active, f = inactive

Take a look at these entries with their results.
- CO/N=C(/C(=O)N[C@@H]1C(=O)N2C(C(=O)O)=C(COC(N)=O)CS[C@H]12)c1ccco1: f
- O=C(CCc1ccc(O)cc1)c1c(O)cc(O)cc1O: f
- COc1ccc(OC(=O)N(CC(=O)O)Cc2ccc(OCCc3nc(-c4ccccc4)oc3C)cc2)cc1: f

-- ask Hi, do you know how O=C(OCC(O)CO)c1ccccc1Nc1ccnc2cc(Cl)ccc12 (centres undefined) came out in this test?
-- reply f

-- ask Hi, do you know how CC(=O)NC1(c2cccc(F)c2)CCN(CC[C@@]2(c3ccc(Cl)c(Cl)c3)CN(c3ccccc3)C(=O)CO2)CC1 came out in this test?
-- reply t

-- ask Hi, do you know how c1ccc(C[n+]2cccc3ccccc32)cc1 came out in this test?
-- reply f
